- target.system: B2 receptor (Homo sapiens)
- experimental.protocol: [^3H]BK competition binding assay, CHO cell membranes
- Parameters: host or cells: CHO cells
- assay.conditions: competition with 0.3 nM [^3H]BK; arithmetic mean; read-out: IC50 (nM) Mean
recorded.metric: IC50 (nM)
Kindly answer with a numeric value in nM, unit omitted.

These solved cases illustrate the format of a correct answer.
compound	recorded.metric	units.symbol	observed.measurement
Cc1cc(-c2ncnn2C)c2cccc(OCc3c(Cl)cc(F)cc3[C@H](C)NC(=O)COC(F)F)c2n1 [Compound 3]	IC50	nM	0.97
Cc1cc(-c2ncnn2C)c2cccc(OCc3c(Cl)cncc3CNC(=O)C3CCCCC3)c2n1 [Compound 1]	IC50	nM	7.4

Now take the following compound into account.
Record summary for Cc1cc(-c2ncnn2C)c2cccc(OCc3c(Cl)cncc3C(C)NC(=O)COC(F)F)c2n1 (racemic) [Compound 2] : reported IC50 = 7.6

----------
- target.system: UniProt P30411
- experimental.protocol: reversibility of antagonism after washout, umbilical vein
- assay.conditions: BK EC50 (nM), after washout, 5 h, washout after Compound 3 10 nM, 5 h; vehicle washout 20.8 nM
recorded.metric: EC50
For clarity, give the value followed by its unit.

Record summary for Cc1cc(-c2ncnn2C)c2cccc(OCc3c(Cl)cc(F)cc3[C@H](C)NC(=O)COC(F)F)c2n1 : reported EC50 = 38.5 nM

----------
- target.system: cynomolgus monkey B2 receptor (Macaca fascicularis)
- Sequence (A0A7N9CWN6 1-391): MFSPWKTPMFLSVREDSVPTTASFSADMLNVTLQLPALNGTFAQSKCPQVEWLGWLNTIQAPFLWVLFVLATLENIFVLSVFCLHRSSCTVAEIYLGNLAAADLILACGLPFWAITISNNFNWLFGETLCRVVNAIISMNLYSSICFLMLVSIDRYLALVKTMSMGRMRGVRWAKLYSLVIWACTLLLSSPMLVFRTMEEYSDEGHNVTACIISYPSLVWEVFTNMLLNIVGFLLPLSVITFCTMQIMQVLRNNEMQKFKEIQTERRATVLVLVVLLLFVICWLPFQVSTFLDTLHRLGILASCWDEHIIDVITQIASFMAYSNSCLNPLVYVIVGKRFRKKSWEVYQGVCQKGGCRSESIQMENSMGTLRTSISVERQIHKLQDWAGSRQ
- experimental.protocol: cell-based
recorded.metric: pIC50
// returns pIC50 (minus log10 of molar concentration), number only

molecule	observed.measurement
Cc1cc(-c2ncnn2C)c2cccc(OCc3c(Cl)cc(F)cc3[C@H](C)NC(=O)COC(F)F)c2n1 [Compound 3]	8.20

Now take the following molecule into account.
Record summary for NC(N)=NCCC[C@@H](N)C(=O)N[C@@H](CCCN=C(N)N)C(=O)N1CCC[C@H]1C(=O)N1C[C@H](O)C[C@H]1C(=O)NCC(=O)N[C@@H](Cc1cccs1)C(=O)N[C@@H](CO)C(=O)N1Cc2ccccc2C[C@@H]1C(=O)N1[C@H](C(=O)N[C@@H](CCCN=C(N)N)C(=O)O)C[C@@H]2CCCC[C@@H]21 [icatibant, reference compound] : reported pIC50 = 7.77

----------
The entries below are paired with their reported Maximal BK-induced response in absolute force units ± S.E.M..
- target.system: endogenous human B2 receptor (Homo sapiens)
- Construct: BK-induced contraction at endogenous human B2 receptor in the umbilical vein model; from tissue; host or cells: human umbilical vein rings (donor cords after elective caesarean section)
- experimental.protocol: human isolated umbilical vein contractility assay, BK-induced contraction
- assay.conditions: antagonist 100 nM; vehicle: Icatibant 1.90, Compound 1 […], Compound 2 2.25, Compound 3 1.52
Kindly answer with a numeric value in grams-weight, unit omitted.

These solved cases illustrate the format of a correct answer.
compound	target.system	observed.measurement
NC(N)=NCCC[C@@H](N)C(=O)N[C@@H](CCCN=C(N)N)C(=O)N1CCC[C@H]1C(=O)N1C[C@H](O)C[C@H]1C(=O)NCC(=O)N[C@@H](Cc1cccs1)C(=O)N[C@@H](CO)C(=O)N1Cc2ccccc2C[C@@H]1C(=O)N1[C@H](C(=O)N[C@@H](CCCN=C(N)N)C(=O)O)C[C@@H]2CCCC[C@@H]21 [icatibant, reference compound]	endogenous human B2 receptor (Homo sapiens)	1.50
Cc1cc(-c2ncnn2C)c2cccc(OCc3c(Cl)cncc3C(C)NC(=O)COC(F)F)c2n1 (racemic)	endogenous human B2 receptor (Homo sapiens)	2.26
Cc1cc(-c2ncnn2C)c2cccc(OCc3c(Cl)cncc3CNC(=O)C3CCCCC3)c2n1	endogenous human B2 receptor (Homo sapiens)	2.08

Now take the following compound into account.
Record summary for Cc1cc(-c2ncnn2C)c2cccc(OCc3c(Cl)cc(F)cc3[C@H](C)NC(=O)COC(F)F)c2n1 : reported Maximal BK-induced response in absolute force units ± S.E.M. = 2.42

----------
- target.system: B2 receptor (Homo sapiens)
- Sequence (P30411 1-391): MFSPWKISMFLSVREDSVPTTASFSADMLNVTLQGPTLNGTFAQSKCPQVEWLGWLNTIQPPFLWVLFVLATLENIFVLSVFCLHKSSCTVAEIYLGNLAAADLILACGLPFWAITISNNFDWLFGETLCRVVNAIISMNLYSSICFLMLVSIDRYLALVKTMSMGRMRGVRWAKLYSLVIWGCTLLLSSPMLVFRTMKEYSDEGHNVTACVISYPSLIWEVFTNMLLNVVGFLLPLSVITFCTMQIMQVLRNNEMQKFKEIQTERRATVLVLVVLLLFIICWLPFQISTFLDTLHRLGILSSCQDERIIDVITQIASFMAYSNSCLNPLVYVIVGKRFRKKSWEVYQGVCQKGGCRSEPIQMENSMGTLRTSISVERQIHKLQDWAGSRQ
- experimental.protocol: reversibility of antagonism after washout, umbilical vein
- assay.conditions: BK EC50 (nM), antagonist present, 3 h, Compound 3 1 nM; vehicle 3 h 18.7 nM
recorded.metric: EC50 (nM)
Kindly answer with a numeric value in nM, unit omitted.

Record summary for Cc1cc(-c2ncnn2C)c2cccc(OCc3c(Cl)cc(F)cc3[C@H](C)NC(=O)COC(F)F)c2n1 : reported EC50 = 67.4

----------
- target.system: Neurokinin NK3 (Homo sapiens)
- Construct: host or cells: CHO cells
- Sequence (P29371 1-465): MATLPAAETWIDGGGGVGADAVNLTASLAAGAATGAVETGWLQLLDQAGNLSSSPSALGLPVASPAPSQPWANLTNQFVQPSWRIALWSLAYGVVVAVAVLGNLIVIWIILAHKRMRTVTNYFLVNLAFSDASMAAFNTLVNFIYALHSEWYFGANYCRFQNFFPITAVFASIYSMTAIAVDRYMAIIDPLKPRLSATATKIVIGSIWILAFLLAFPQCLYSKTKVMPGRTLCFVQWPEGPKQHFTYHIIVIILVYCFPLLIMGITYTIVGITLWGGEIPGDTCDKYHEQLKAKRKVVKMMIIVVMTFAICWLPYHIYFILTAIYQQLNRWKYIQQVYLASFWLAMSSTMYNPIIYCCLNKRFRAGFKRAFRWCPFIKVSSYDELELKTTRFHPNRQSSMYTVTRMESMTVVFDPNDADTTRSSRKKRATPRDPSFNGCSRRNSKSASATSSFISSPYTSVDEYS
- experimental.protocol: functional assay, intracellular [Ca2+], CHO cells (Table S2)
- Assay type: cell-based
- assay.conditions: [MePhe7]-NKB (1 nM); read-out: IC50 (µM), functional antagonism
recorded.metric: IC50
For clarity, give the value followed by its unit.

Record summary for Cc1cc(-c2ncnn2C)c2cccc(OCc3c(Cl)cc(F)cc3[C@H](C)NC(=O)COC(F)F)c2n1 : reported IC50 = 17 µM

----------
- target.system: endogenous human B2 receptor (Homo sapiens, UniProt P30411)
- Construct: BK-induced contraction at endogenous human B2 receptor in the umbilical vein model; from tissue; host or cells: human umbilical vein rings (donor cords after elective caesarean section)
- experimental.protocol: human isolated umbilical vein contractility assay, BK-induced contraction
- assay.conditions: antagonist 10 nM; vehicle: Icatibant 1.90, Compound 1 […], Compound 2 2.25, Compound 3 1.52
The entries below are paired with their reported Maximal BK-induced response in absolute force units ± S.E.M..
Kindly answer with a numeric value in grams-weight, unit omitted.

compound	units.symbol	observed.measurement
NC(N)=NCCC[C@@H](N)C(=O)N[C@@H](CCCN=C(N)N)C(=O)N1CCC[C@H]1C(=O)N1C[C@H](O)C[C@H]1C(=O)NCC(=O)N[C@@H](Cc1cccs1)C(=O)N[C@@H](CO)C(=O)N1Cc2ccccc2C[C@@H]1C(=O)N1[C@H](C(=O)N[C@@H](CCCN=C(N)N)C(=O)O)C[C@@H]2CCCC[C@@H]21 [icatibant, reference compound]	grams-weight	1.47

// assay endogenous human B2 receptor (Homo sapiens, UniProt P30411), entry Cc1cc(-c2ncnn2C)c2cccc(OCc3c(Cl)cc(F)cc3[C@H](C)NC(=O)COC(F)F)c2n1 , Maximal BK-induced response in absolute force units ± S.E.M. value = 2.29

// assay endogenous human B2 receptor (Homo sapiens, UniProt P30411), entry Cc1cc(-c2ncnn2C)c2cccc(OCc3c(Cl)cncc3C(C)NC(=O)COC(F)F)c2n1 (racemic) , Maximal BK-induced response in absolute force units ± S.E.M. value = 2.07

// assay endogenous human B2 receptor (Homo sapiens, UniProt P30411), entry Cc1cc(-c2ncnn2C)c2cccc(OCc3c(Cl)cncc3CNC(=O)C3CCCCC3)c2n1 , Maximal BK-induced response in absolute force units ± S.E.M. value = 1.48

----------
- target.system: B2 receptor (Homo sapiens, UniProt P30411)
- experimental.protocol: [^3H]BK competition binding assay, CHO cell membranes
- Design: host or cells: CHO cells
- assay.conditions: competition with 0.3 nM [^3H]BK; arithmetic mean; read-out: Ki (nM) Mean
recorded.metric: Ki (nM)
Kindly answer with a numeric value in nM, unit omitted.

molecule	Ki, nM
Cc1cc(-c2ncnn2C)c2cccc(OCc3c(Cl)cncc3CNC(=O)C3CCCCC3)c2n1	3.8
Cc1cc(-c2ncnn2C)c2cccc(OCc3c(Cl)cc(F)cc3[C@H](C)NC(=O)COC(F)F)c2n1	0.5

Now take the following molecule into account.
Record summary for Cc1cc(-c2ncnn2C)c2cccc(OCc3c(Cl)cncc3C(C)NC(=O)COC(F)F)c2n1 (racemic) : reported Ki = 3.9
